# system under test: Chromobox protein homolog 5 (Homo sapiens, UniProt P45973)
# Sequence (P45973 whole entry, the tested form may be a part): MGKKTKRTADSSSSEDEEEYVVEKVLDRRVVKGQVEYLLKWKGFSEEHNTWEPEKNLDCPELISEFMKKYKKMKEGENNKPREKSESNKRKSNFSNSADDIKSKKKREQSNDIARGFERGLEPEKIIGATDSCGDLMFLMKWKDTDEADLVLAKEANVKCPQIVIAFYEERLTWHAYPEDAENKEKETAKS
# test: Antagonist activity at recombinant human N-terminal His-tagged CBX5 chromodomain (18 to 75 residues) expressed in Escherichia coli Rosetta BL21(DE3)pLysS using ARTKQTARK(Me3)STGGKAPRKQL-K(Biotin)-NH2 measured after 30 mins by AlphaScreen assay
Numbered stars: 1 amine (or outer) side, 2 acyl side, 3 side chain; on linkers, the order of the positions; unused ones are H or OH. Square brackets hold non-standard residues; d marks the D form. Peptide text beside a SMILES is read from it. * marks the point of attachment. X5 = O=C([C@H](CCCCNC1C2CC3CC(C2)CC1C3)N[*:1])[*:2]; X3 = CN(C)C(NCCCC[C@H](N[*:1])C(=O)[*:2])=[N+](C)C; X14 = CCCN(CCCC[C@H](N[*:1])C(=O)[*:2])C(C)C; Benzoyl(4-tBu) = CC(C)(C)c1ccc(C(=O)*)cc1; Lys(Et2) = CCN(CC)CCCC[C@H](N)C(=O)O; Benzoyl(4-OMe) = COc1ccc(C(=O)*)cc1; Bz = O=C(c1ccccc1)*
List of IC50 values.

Reference set, count: 3
COC(=O)[C@H](CO)NC(=O)[C@H](CCCCNC(N(C)C)=[N+](C)C)NC(=O)[C@H](CC(C)C)NC(=O)[C@H](C)NC(=O)[C@H](Cc1ccccc1)NC(=O)CNC(=O)c1ccccc1 (Bz-GFAL[X3]S-OMe) = > 60 µM
CCCN(CCCC[C@H](NC(=O)[C@H](CC(C)C)NC(=O)[C@H](C)NC(=O)[C@H](Cc1ccccc1)NC(=O)c1ccc(C(C)(C)C)cc1)C(=O)N[C@@H](CO)C(=O)OC)C(C)C ({Benzoyl(4-tBu)}-FAL[X14]S-OMe) = > 60 µM
COC(=O)[C@H](CO)NC(=O)[C@H](CCCCNC1C2CC3CC(C2)CC1C3)NC(=O)[C@H](CC(C)C)NC(=O)[C@H](C)NC(=O)[C@H](Cc1ccccc1)NC(=O)CNC(=O)c1ccccc1 (some centres undefined) (Bz-GFAL[X5]S-OMe) = > 60 µM

Turning now to a further molecule:
Enter measured IC50, system Chromobox protein homolog 5 (Homo sapiens, UniProt P45973), for the molecule shown: CCN(CC)CCCC[C@H](NC(=O)[C@H](CC(C)C)NC(=O)[C@H](C)NC(=O)[C@H](Cc1ccccc1)NC(=O)c1ccc(OC)cc1)C(=O)N[C@@H](CO)C(=O)OC ({Benzoyl(4-OMe)}-FAL[Lys(Et2)]S-OMe)
12 µM

----------
# system under test: Chromobox protein homolog 5 (Homo sapiens)
# test: Antagonist activity at recombinant human N-terminal His-tagged CBX5 chromodomain (18 to 75 residues) expressed in Escherichia coli Rosetta BL21(DE3)pLysS using ARTKQTARK(Me3)STGGKAPRKQL-K(Biotin)-NH2 measured after 30 mins by AlphaScreen assay
pIC50: −log10 of the molar value. Numbered stars: 1 amine (or outer) side, 2 acyl side, 3 side chain; on linkers, the order of the positions; unused ones are H or OH. Square brackets hold non-standard residues; d marks the D form. Peptide text beside a SMILES is read from it. * marks the point of attachment. X8 = O=C([C@H](CCCCNC1CC2CCC1C2)N[*:1])[*:2]; Phe(4-CH2NH2) = NCc1ccc(C[C@H](N)C(=O)O)cc1; X19 = CN(CCCC[C@H](N[*:1])C(=O)[*:2])C1CNC1; Lys(Et,iPr) = CCN(CCCC[C@H](N)C(=O)O)C(C)C; Benzoyl(4-tBu) = CC(C)(C)c1ccc(C(=O)*)cc1; Lys(Et2) = CCN(CC)CCCC[C@H](N)C(=O)O; X18 = O=C(Cc1c[nH]c2ccccc12)*; Boc = CC(C)(C)OC(=O)*; Bz = O=C(c1ccccc1)*
quantity: pIC50

COC(=O)[C@H](CO)NC(=O)[C@H](CCCCNC1CC2CCC1C2)NC(=O)[C@H](CC(C)C)NC(=O)[C@H](C)NC(=O)[C@H](Cc1ccccc1)NC(=O)CNC(=O)c1ccccc1 (stereo partly specified) (Bz-GFAL[X8]S-OMe) = < 4.22
CCN(CC)CCCC[C@H](NC(=O)[C@H](CC(C)C)NC(=O)[C@H](C)NC(=O)[C@H](Cc1ccc(CN)cc1)NC(=O)c1ccc(C(C)(C)C)cc1)C(=O)N[C@@H](CO)C(=O)OC ({Benzoyl(4-tBu)}-[Phe(4-CH2NH2)]AL[Lys(Et2)]S-OMe) = 4.28
CCN(CC)CCCC[C@H](NC(=O)[C@H](CC(C)C)NC(=O)[C@H](C)NC(=O)[C@H](Cc1ccccc1)NC(=O)Cc1c[nH]c2ccccc12)C(=O)N[C@@H](CO)C(=O)OC (X18-FAL[Lys(Et2)]S-OMe) = < 4.22
CCN(CC)CCCC[C@H](NC(=O)[C@H](CC(C)C)NC(=O)[C@H](C)NC(=O)[C@H](Cc1ccc(CNC(=O)OC(C)(C)C)cc1)NC(=O)c1ccc(C(C)(C)C)cc1)C(=O)N[C@@H](CO)C(=O)OC ({Benzoyl(4-tBu)}-[Phe(4-CH2NH2)](Boc)AL[Lys(Et2)]S-OMe) = 4.36
COC(=O)[C@H](CO)NC(=O)[C@H](CCCCN(C)C1CNC1)NC(=O)[C@H](CC(C)C)NC(=O)[C@H](C)NC(=O)[C@H](Cc1ccccc1)NC(=O)CNC(=O)c1ccccc1 (Bz-GFAL[X19]S-OMe) = < 4.22

Turning now to a further compound:
Determine from records and report pIC50 for CCN(CCCC[C@H](NC(=O)[C@H](CC(C)C)NC(=O)[C@H](C)NC(=O)[C@H](Cc1ccccc1)NC(=O)c1ccc(C(C)(C)C)cc1)C(=O)N[C@@H](CO)C(=O)OC)C(C)C ({Benzoyl(4-tBu)}-FAL[Lys(Et,iPr)]S-OMe)
< 4.22

----------
# system under test: E3 SUMO-protein ligase CBX4 (Homo sapiens)
# Sequence (O00257 whole entry, the tested form may be a part): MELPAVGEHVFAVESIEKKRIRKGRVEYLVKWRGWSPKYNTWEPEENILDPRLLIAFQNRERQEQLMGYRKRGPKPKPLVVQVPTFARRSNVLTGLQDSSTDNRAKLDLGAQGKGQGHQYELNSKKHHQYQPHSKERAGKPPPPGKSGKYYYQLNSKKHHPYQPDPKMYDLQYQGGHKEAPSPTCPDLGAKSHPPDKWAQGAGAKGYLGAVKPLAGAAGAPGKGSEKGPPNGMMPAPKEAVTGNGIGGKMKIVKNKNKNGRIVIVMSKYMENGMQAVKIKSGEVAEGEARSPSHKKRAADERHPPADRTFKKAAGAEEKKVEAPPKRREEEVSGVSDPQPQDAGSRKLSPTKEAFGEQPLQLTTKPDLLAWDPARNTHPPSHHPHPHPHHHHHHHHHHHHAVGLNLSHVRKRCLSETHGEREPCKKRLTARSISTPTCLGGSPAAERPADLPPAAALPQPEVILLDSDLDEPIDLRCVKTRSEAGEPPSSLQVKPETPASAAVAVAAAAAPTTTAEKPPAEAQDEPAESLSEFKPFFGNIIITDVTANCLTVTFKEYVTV
# test: Antagonist activity at recombinant human N-terminal His-tagged CBX4 chromodomain (8 to 65 residues) expressed in Escherichia coli Rosetta BL21(DE3)pLysS using biotin-labeled UNC4195 measured after 30 mins by AlphaScreen assay
Numbered stars: 1 amine (or outer) side, 2 acyl side, 3 side chain; on linkers, the order of the positions; unused ones are H or OH. Square brackets hold non-standard residues; d marks the D form. Peptide text beside a SMILES is read from it. * marks the point of attachment. X14 = CCCN(CCCC[C@H](N[*:1])C(=O)[*:2])C(C)C; Acetyl(2-naphthyl) = O=C(Cc1ccc2ccccc2c1)*; Benzoyl(4-tBu) = CC(C)(C)c1ccc(C(=O)*)cc1; Lys(Et2) = CCN(CC)CCCC[C@H](N)C(=O)O; Benzoyl(4-OMe) = COc1ccc(C(=O)*)cc1; Bz = O=C(c1ccccc1)*
List of IC50 values.
Express your answer in µM, writing the number without its unit.

CCN(CC)CCCC[C@H](NC(=O)[C@H](CC(C)C)NC(=O)[C@H](C)NC(=O)[C@H](Cc1ccccc1)NC(=O)c1ccc(OC)cc1)C(=O)N[C@@H](CO)C(=O)OC ({Benzoyl(4-OMe)}-FAL[Lys(Et2)]S-OMe) = 0.75
CCN(CC)CCCC[C@H](NC(=O)[C@H](CC(C)C)NC(=O)[C@H](C)NC(=O)[C@H](Cc1ccccc1)NC(=O)Cc1ccc2ccccc2c1)C(=O)N[C@@H](CO)C(=O)OC ({Acetyl(2-naphthyl)}-FAL[Lys(Et2)]S-OMe) = 5.2

Determine from records and report IC50 for CCN(CC)CCCC[C@H](NC(=O)[C@H](CC(C)C)NC(=O)[C@H](C)NC(=O)[C@H](Cc1ccccc1)NC(=O)CNC(=O)c1ccccc1)C(=O)N[C@@H](CO)C(=O)OC (Bz-GFAL[Lys(Et2)]S-OMe)
46

Determine from records and report IC50 for CCCN(CCCC[C@H](NC(=O)[C@H](CC(C)C)NC(=O)[C@H](C)NC(=O)[C@H](Cc1ccccc1)NC(=O)c1ccc(C(C)(C)C)cc1)C(=O)N[C@@H](CO)C(=O)OC)C(C)C ({Benzoyl(4-tBu)}-FAL[X14]S-OMe)
0.062

----------
# system under test: UniProt:P45973
# test: Antagonist activity at recombinant human N-terminal His-tagged CBX5 chromodomain (18 to 75 residues) expressed in Escherichia coli Rosetta BL21(DE3)pLysS using ARTKQTARK(Me3)STGGKAPRKQL-K(Biotin)-NH2 measured after 30 mins by AlphaScreen assay
pIC50: −log10 of the molar value. Numbered stars: 1 amine (or outer) side, 2 acyl side, 3 side chain; on linkers, the order of the positions; unused ones are H or OH. Square brackets hold non-standard residues; d marks the D form. Peptide text beside a SMILES is read from it. * marks the point of attachment. X17 = CC(=O)N(CCCC[C@H](N[*:1])C(=O)[*:2])C1CC2CCC1C2; X15 = O=C([C@H](CCCCNC1CN2CCC1CC2)N[*:1])[*:2]; Acetyl(2-naphthyl) = O=C(Cc1ccc2ccccc2c1)*; Lys(Et2) = CCN(CC)CCCC[C@H](N)C(=O)O; Bz = O=C(c1ccccc1)*
List of pIC50 values.

Reference set, count: 2
COC(=O)[C@H](CO)NC(=O)[C@H](CCCCNC1CN2CCC1CC2)NC(=O)[C@H](CC(C)C)NC(=O)[C@H](C)NC(=O)[C@H](Cc1ccccc1)NC(=O)CNC(=O)c1ccccc1 (stereo partly drawn) (Bz-GFAL[X15]S-OMe) = < 4.22
CCN(CC)CCCC[C@H](NC(=O)[C@H](CC(C)C)NC(=O)[C@H](C)NC(=O)[C@H](Cc1ccccc1)NC(=O)Cc1ccc2ccccc2c1)C(=O)N[C@@H](CO)C(=O)OC ({Acetyl(2-naphthyl)}-FAL[Lys(Et2)]S-OMe) = < 4.22

Turning now to a further compound:
Enter measured pIC50, system UniProt:P45973, for the compound shown: COC(=O)[C@H](CO)NC(=O)[C@H](CCCCN(C(C)=O)C1CC2CCC1C2)NC(=O)[C@H](CC(C)C)NC(=O)[C@H](C)NC(=O)[C@H](Cc1ccccc1)NC(=O)CNC(=O)c1ccccc1 (stereo partly drawn) (Bz-GFAL[X17]S-OMe)
< 4.22
